Test system: WM793B (Melanoma);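 also: after 72 h of two-drug dosing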
Protocol Notes: Bliss excess, mean over the matrix (fraction); higher = more synergy
Measurement Label: Bliss excess
Reply with the value as a number alone.

Answered cases to consult:
{"columns": ["Compound", "Test Target", "Assay Result"],
 "data": [
  ["Cn1cnc2c(F)c(Nc3ccc(Br)cc3Cl)c(C(=O)NOCCO)cc21 [Selumetinib] + C[C@@H]1COCCN1C2=NC(=NC(=C2)C3(CC3)[S@](=N)(=O)C)C4=C5C=CNC5=NC=C4 [AZD6738] (first compound max 10 µM, 7x7, partner max 10 µM)", "WM793B (Melanoma)", -0.0447],
  ["CN(CCO)CC[C@H](CSc1ccccc1)Nc1ccc(S(=O)(=O)NC(=O)c2ccc(N3CCC([C@@H](O)c4ccccc4-c4ccc(Cl)cc4)CC3)cc2)cc1S(=O)(=O)C(F)(F)F [AZD4320] + C[C@@H](Nc1cc(F)cc(F)c1)c1cc(C(=O)N(C)C)cc2c(=O)cc(N3CCOCC3)oc12 [AZD8186] (first compound max 1 µM, 7x7, partner max 3 µM)", "WM793B (Melanoma)", 0.0434]
]}

Consider the additional compound presented here.
Q. So what does the record say about Bliss excess for NC1(C(=O)N[C@@H](CCO)c2ccc(Cl)cc2)CCN(c2ncnc3[nH]ccc23)CC1 [Capivasertib] + COc1nnc2ccc(N3CCC(c4ccc(OCCN5CCN(C)C(=O)[C@H]5C)cc4)CC3)nn12 [AZD5153] (first compound max 10 µM, 7x7, partner max 1 µM) ?
A. -0.0115

====

Each entry below carries its recorded combination Emax.
System: NCI-H2342 (Lung Adenocarcinoma)
Protocol Notes: combination Emax (second highest fraction inhibited in the dose matrix, 72 h); higher = more inhibition; extreme values may be limits of the assay
Lab note: jot the number down without any unit.

Use these answered entries as a reference point.
{"columns": ["Compound", "Measurement Label", "Assay Result"],
 "data": [
  ["C[C@@H]1COCCN1c1cc(C2([S@](C)(=N)=O)CC2)nc(-c2ccnc3[nH]ccc23)n1 [AZD6738] + Nc1ccn([C@@H]2O[C@H](CO)[C@@H](O)C2(F)F)c(=O)n1 [Gemcitabine] (first compound max 10 µM, 7x7, partner max 0.3 µM)", "combination Emax", 0.85],
  ["CC1(C)CCC(CN2CCN(c3ccc(C(=O)NS(=O)(=O)c4ccc(NCC5CCOCC5)c([N+](=O)[O-])c4)c(Oc4cnc5[nH]ccc5c4)c3)CC2)=C(c2ccc(Cl)cc2)C1 [Venetoclax] + CN(C)CCCOc1ccc(-c2ccc3ncc4c(c3c2)n(C2CCOCC2)c(=O)n4C)cn1 [AZD0156] (first compound max 1 µM, 7x7, partner max 1 µM)", "combination Emax", 0.203],
  ["Cc1c2c(nn1C)CSCc1cc(n(C)n1)CSc1cc(c3ccccc3c1)OCCCc1c(C(=O)O)n(C)c3c-2c(Cl)ccc13 [AZD5991] + CCN(CCO)CCCOc1ccc2c(Nc3cc(CC(=O)Nc4cccc(F)c4)[nH]n3)ncnc2c1 [AZD2811] (first compound max 1 µM, 7x7, partner max 1 µM)", "combination Emax", 0.427],
  ["NC1(C(=O)N[C@@H](CCO)c2ccc(Cl)cc2)CCN(c2ncnc3[nH]ccc23)CC1 [Capivasertib] + COc1nnc2ccc(N3CCC(c4ccc(OCCN5CCN(C)C(=O)[C@H]5C)cc4)CC3)nn12 [AZD5153] (first compound max 10 µM, 7x7, partner max 1 µM)", "combination Emax", 0.46]
]}

Q. Name the reported combination Emax value associated with the compound Cc1cc2ncnn2cc1Nc1ncc2c(n1)n(C1CCOCC1)c(=O)n2C [AZD7648] + COc1cc([C@@H]2c3cc4c(cc3[C@@H](O[C@@H]3O[C@@H]5CO[C@@H](C)O[C@H]5[C@H](O)[C@H]3O)[C@H]3COC(=O)[C@H]23)OCO4)cc(OC)c1O [Etoposide] (first compound max 10 µM, 7x7, partner max 10 µM)
A. 0.569

Q. Bench note: what combination Emax did C[C@@H](Oc1cc(-c2cnn(C3CCNCC3)c2)cnc1N)c1c(Cl)ccc(F)c1Cl [Crizotinib] + CC1=C(C(=CC=C1)Cl)NC(=O)C2=CN=C(S2)NC3=CC(=NC(=N3)C)N4CCN(CC4)CCO [Dasatinib] (first compound max 10 µM, 7x7, partner max 2 µM) show?
A. 0.37

Q. Please give the measured combination Emax for this compound: Cn1cnc2c(F)c(Nc3ccc(Br)cc3Cl)c(C(=O)NOCCO)cc21 [Selumetinib] + CCN(CCO)CCCOc1ccc2c(Nc3cc(CC(=O)Nc4cccc(F)c4)[nH]n3)ncnc2c1 [AZD2811] (first compound max 10 µM, 7x7, partner max 1 µM)
A. 0.365
